Tested on: HeLa;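 further: High-content confocal imaging of branched-DNA amplified FISH in 384-well plates, Hoechst-defined nuclei, score is well value minus plate DMSO median over DMSO robust SD, four wells per compound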
TEST DESCRIPTION: MALAT1 nuclear FISH intensity, robust Z-score vs DMSO; higher = more nuclear MALAT1 lncRNA, active = -3 or less
CONDITION SUMMARY: 10 µM; 6 h
Counter-ions that a name gives are not always drawn.
Hi! Could you answer with just one of these? true (1) = active, false (0) = inactive

Example results:
| COMPOUND | CLASS NAME |
| --- | --- |
| COc1cc2ncnc(Nc3cccc(Cl)c3)c2cc1OC [Tyrphostin AG 1478] | false (0) |
| O=C1O[C@H](CO)[C@@H](O)[C@H](O)[C@H]1O | false (0) |
| CN(C)C(=N)NC(=N)N | false (0) |
| COc1ccccc1OCC(O)COC(N)=O (stereo not given) | false (0) |
| CCCCCCCCc1ccc(CCC(N)(CO)CO)cc1 | true (1) |
| NS(=O)(=O)Cc1noc2ccccc12 [Zonisamide] | false (0) |
| CN1CCC[C@@H]1CCO[C@](C)(c1ccccc1)c1ccc(Cl)cc1 [Clemastine Fumarate] | false (0) |
| C[C@H]1[C@H](NC(=O)/C(=N\OC(C)(C)C(=O)O)c2csc(N)n2)C(=O)N1S(=O)(=O)O | false (0) |
| O=C(O)COCCN1CCN(C(c2ccccc2)c2ccc(Cl)cc2)CC1 (stereo not given) [Cetirizine HCl] | false (0) |

Task: Can you look up the reported call for Cn1cc(C2=C(c3ccc(Cl)cc3Cl)C(=O)NC2=O)c2ccccc21 for me?
Result: false (0)
